- MEASURED_TARGET: T1, Hsp70 wild type (human Hsp70 1A) (human, UniProt P0DMV8 1-641)
- T1 construct: human Hsp70 1A, GenBank entry NP005336; also called Hsp70 WT; heat shock protein 70 kDa
- T1 sequence (P0DMV8 whole entry): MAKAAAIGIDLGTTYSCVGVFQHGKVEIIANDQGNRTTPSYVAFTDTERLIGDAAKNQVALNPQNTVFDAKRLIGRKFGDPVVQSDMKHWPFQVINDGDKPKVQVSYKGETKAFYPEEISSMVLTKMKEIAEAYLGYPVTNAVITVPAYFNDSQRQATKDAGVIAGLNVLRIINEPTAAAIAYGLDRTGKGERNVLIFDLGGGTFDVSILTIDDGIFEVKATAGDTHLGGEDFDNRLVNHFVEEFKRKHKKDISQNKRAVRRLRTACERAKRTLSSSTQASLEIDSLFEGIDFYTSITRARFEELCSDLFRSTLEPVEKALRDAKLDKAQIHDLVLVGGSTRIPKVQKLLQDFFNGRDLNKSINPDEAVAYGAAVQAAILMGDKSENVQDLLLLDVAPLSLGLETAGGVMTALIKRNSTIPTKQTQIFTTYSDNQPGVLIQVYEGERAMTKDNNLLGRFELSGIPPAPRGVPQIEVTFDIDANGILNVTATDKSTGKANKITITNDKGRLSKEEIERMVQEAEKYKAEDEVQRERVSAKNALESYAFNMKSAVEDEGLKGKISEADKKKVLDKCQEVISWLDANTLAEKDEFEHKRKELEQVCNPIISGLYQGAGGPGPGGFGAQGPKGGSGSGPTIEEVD
- TEST_NAME: other fluorescence titration; 0.15 µM FAM-hIAPP with 0 to 36 µM chaperone in 50 mM Tris pH 7.4, 150 mM KCl, 5 mM MgCl2, 1 h at room temperature; FAM fluorescence at 520 nm; one-site binding model
- TEST_CONDITIONS: both partners purified
Ends that are not written are not given here. FAM = carboxyfluorescein
RECORDED_METRIC: pKd
The meaning of pKd here: minus log10 of the concentration in molar units.

Request: Recorded pKd for {FAM}-KCNTATCATQRLANFLVHSSNNFGAILSSTNVGSNTY (peptide, UniProt P10997 34-70, looked up, ends and bridges not checked, human islet amyloid polypeptide (hIAPP, amylin), the mature hormone cut from its precursor; also called amylin; source: bought: Phoenix Pharmaceuticals) [FAM-hIAPP (human islet amyloid polypeptide N-terminally labelled with carboxyfluorescein)] , please?
Response: 5.66
